System: recombinant human IL-23 protein (rhIL-23)
ASSAY: Binding of mouse antiserum to rhIL-23, ELISA
RUN PARAMETERS: rhIL-23 ELISA; antiserum of BALB/c mice 6 weeks after initial administration, 0.5 mg/body with Alhydrogel
Where no end group is shown, it is not given here.
This section presents substances with their documented binding to IL-23 (binding ratio to normal serum) values.
MEASURE NAME: binding to IL-23 (binding ratio to normal serum)

In [3]: df
Out[3]:
                                   substance  test_value
 0  19 (SPSQSWQR; not fully specified (N-terminus)) [compound 19]        1.33
 1  36 (QPWQRSQPWQR; not fully specified (N-terminus)) [compound 36]        1.10
 2  26 (STSQQWQR; not fully specified (N-terminus)) [compound 26]        1.15
 3  23 (STSQSWQR; not fully specified (N-terminus)) [compound 23]        1.33
 4  11 (SPSQAWQR; not fully specified (N-terminus)) [compound 11]        1.55
 5  8 (SASQPWQR; not fully specified (N-terminus)) [compound 8]        1.37
 6  9 (SPAQPWQR; not fully specified (N-terminus)) [compound 9]        1.01
 7  16 (QWQRPWQR; not fully specified (N-terminus)) [compound 16]        1.09
 8  31 (PSQPWQR; not fully specified (N-terminus); listed as Homo sapiens) [compound 31]        0.99
 9  28 (SKSQPWQR; not fully specified (N-terminus)) [compound 28]        1.13
10  25 (SPSQQWQR; not fully specified (N-terminus)) [compound 25]        1.66
11  22 (SSSQTWQR; not fully specified (N-terminus)) [compound 22]        1.35
12  29 (SPKQPWQR; not fully specified (N-terminus)) [compound 29]        1.11
13  15 (PWQRPWQR; not fully specified (N-terminus)) [compound 15]        1.16
14  12 (SPSQPAQR; not fully specified (N-terminus)) [compound 12]        1.12
15  17 (SSSQPWQR; not fully specified (N-terminus)) [compound 17]        1.26
16  34 (PSQPWQRK; not fully specified (N-terminus); listed as Homo sapiens) [compound 34]        0.97

----------
System: epitope peptide
ASSAY: Antibody titer (GMT) of serum of mice administered AJP001 conjugated peptide, ELISA
Format: in vivo, mouse
RUN PARAMETERS: BALB/c mice, 0.5 mg/body intradermal with equal amount of 2% Alhydrogel, 3 times at two-week intervals; serum 6 weeks after initial administration; titer to each epitope sequence
Where no end group is shown, it is not given here.
MEASURE NAME: antibody titer (GMT)

In [3]: df
Out[3]:
                                   substance  target_of_assay          measure_name  test_value
 0  16 (QWQRPWQR; not fully specified (N-terminus)) [compound 16]  epitope peptide  antibody titer (GMT)         201
 1  37 (QPWQRGGGGSQPWQR; not fully specified (N-terminus)) [compound 37]  epitope peptide  antibody titer (GMT)        6459
 2  31 (PSQPWQR; not fully specified (N-terminus); listed as Homo sapiens) [compound 31]  epitope peptide  antibody titer (GMT)       12417
 3  23 (STSQSWQR; not fully specified (N-terminus)) [compound 23]  epitope peptide  antibody titer (GMT)       31720
 4  22 (SSSQTWQR; not fully specified (N-terminus)) [compound 22]  epitope peptide  antibody titer (GMT)        2160
 5  13 (SPSQPWAR; not fully specified (N-terminus)) [compound 13]  epitope peptide  antibody titer (GMT)        3215
 6  18 (STSQPWQR; not fully specified (N-terminus)) [compound 18]  epitope peptide  antibody titer (GMT)        8211
 7  32 (SQPWQR; not fully specified (N-terminus); listed as Homo sapiens) [compound 32]  epitope peptide  antibody titer (GMT)        5567
 8  26 (STSQQWQR; not fully specified (N-terminus)) [compound 26]  epitope peptide  antibody titer (GMT)       64652
 9  9 (SPAQPWQR; not fully specified (N-terminus)) [compound 9]  epitope peptide  antibody titer (GMT)        4683
10  29 (SPKQPWQR; not fully specified (N-terminus)) [compound 29]  epitope peptide  antibody titer (GMT)        9056
11  30 (KKSQPWQR; not fully specified (N-terminus)) [compound 30]  epitope peptide  antibody titer (GMT)        6917
12  36 (QPWQRSQPWQR; not fully specified (N-terminus)) [compound 36]  epitope peptide  antibody titer (GMT)        8202
13  19 (SPSQSWQR; not fully specified (N-terminus)) [compound 19]  epitope peptide  antibody titer (GMT)       18311
14  8 (SASQPWQR; not fully specified (N-terminus)) [compound 8]  epitope peptide  antibody titer (GMT)        3485
15  24 (STSQTWQR; not fully specified (N-terminus)) [compound 24]  epitope peptide  antibody titer (GMT)      126353
16  27 (KPSQPWQR; not fully specified (N-terminus)) [compound 27]  epitope peptide  antibody titer (GMT)       12615

----------
System: epitope peptide
ASSAY: Antibody titer (GMT) of serum of mice administered AJP001 conjugated peptide, ELISA
Assay type: in vivo, mouse
RUN PARAMETERS: BALB/c mice, 0.5 mg/body intradermal with equal amount of 2% Alhydrogel, 3 times at two-week intervals; serum 6 weeks after initial administration; titer to each epitope sequence
Where no end group is shown, it is not given here.
Would you please tag the item TRUE when its antibody titer (GMT) is 10000 or above, and FALSE when it is below?

In [3]: df
Out[3]:
                                   substance  classification
 0  17 (SSSQPWQR; not fully specified (N-terminus)) [compound 17]           FALSE
 1  25 (SPSQQWQR; not fully specified (N-terminus)) [compound 25]            TRUE
 2  12 (SPSQPAQR; not fully specified (N-terminus)) [compound 12]            TRUE
 3  14 (SPSQPWQA; not fully specified (N-terminus)) [compound 14]           FALSE
 4  11 (SPSQAWQR; not fully specified (N-terminus)) [compound 11]            TRUE
 5  34 (PSQPWQRK; not fully specified (N-terminus); listed as Homo sapiens) [compound 34]           FALSE
 6  21 (SSSQSWQR; not fully specified (N-terminus)) [compound 21]            TRUE
 7  20 (SPSQTWQR; not fully specified (N-terminus)) [compound 20]            TRUE
 8  6 (SPSQPWQR; not fully specified (N-terminus); listed as Homo sapiens) [compound 6]            TRUE
 9  28 (SKSQPWQR; not fully specified (N-terminus)) [compound 28]           FALSE
10  15 (PWQRPWQR; not fully specified (N-terminus)) [compound 15]           FALSE
11  35 (SQPWQRK; not fully specified (N-terminus); listed as Homo sapiens) [compound 35]           FALSE
12  7 (APSQPWQR; not fully specified (N-terminus)) [compound 7]           FALSE
13  10 (SPSAPWQR; not fully specified (N-terminus)) [compound 10]            TRUE

----------
System: IL-17 production in rhIL-23 stimulated mouse splenocyte
ASSAY: Neutralization activity of mouse antiserum: IL-17 production in rhIL-23 stimulated mouse splenocyte
Type: cell-based
RUN PARAMETERS: antiserum final 15-fold, rhIL-23 10 ng/ml, 3 days culture; IL-17A/F ELISA
Where no end group is shown, it is not given here.
MEASURE NAME: neutralization activity (percentage of IL-17 to normal serum (%))

In [3]: df
Out[3]:
                                   substance  test_value
 0  31 (PSQPWQR; not fully specified (N-terminus); listed as Homo sapiens) [compound 31]       63.4%
 1  6 (SPSQPWQR; not fully specified (N-terminus); listed as Homo sapiens) [compound 6]       15.8%
 2  34 (PSQPWQRK; not fully specified (N-terminus); listed as Homo sapiens) [compound 34]       32.5%
 3  12 (SPSQPAQR; not fully specified (N-terminus)) [compound 12]        3.1%
 4  30 (KKSQPWQR; not fully specified (N-terminus)) [compound 30]       68.9%
 5  25 (SPSQQWQR; not fully specified (N-terminus)) [compound 25]        2.1%
 6  10 (SPSAPWQR; not fully specified (N-terminus)) [compound 10]        0.0%
 7  20 (SPSQTWQR; not fully specified (N-terminus)) [compound 20]        5.8%
 8  13 (SPSQPWAR; not fully specified (N-terminus)) [compound 13]        4.8%
 9  8 (SASQPWQR; not fully specified (N-terminus)) [compound 8]        1.4%
10  24 (STSQTWQR; not fully specified (N-terminus)) [compound 24]        0.0%
11  11 (SPSQAWQR; not fully specified (N-terminus)) [compound 11]        8.1%
12  37 (QPWQRGGGGSQPWQR; not fully specified (N-terminus)) [compound 37]       63.9%
13  9 (SPAQPWQR; not fully specified (N-terminus)) [compound 9]        4.0%
14  29 (SPKQPWQR; not fully specified (N-terminus)) [compound 29]       63.9%
15  19 (SPSQSWQR; not fully specified (N-terminus)) [compound 19]        2.4%
16  22 (SSSQTWQR; not fully specified (N-terminus)) [compound 22]        8.5%
17  16 (QWQRPWQR; not fully specified (N-terminus)) [compound 16]        3.6%
18  32 (SQPWQR; not fully specified (N-terminus); listed as Homo sapiens) [compound 32]       61.3%
19  15 (PWQRPWQR; not fully specified (N-terminus)) [compound 15]         10%
20  23 (STSQSWQR; not fully specified (N-terminus)) [compound 23]        9.4%
21  27 (KPSQPWQR; not fully specified (N-terminus)) [compound 27]       72.3%
22  18 (STSQPWQR; not fully specified (N-terminus)) [compound 18]        0.0%
23  35 (SQPWQRK; not fully specified (N-terminus); listed as Homo sapiens) [compound 35]       32.5%
24  17 (SSSQPWQR; not fully specified (N-terminus)) [compound 17]        1.6%
25  28 (SKSQPWQR; not fully specified (N-terminus)) [compound 28]       42.2%
26  14 (SPSQPWQA; not fully specified (N-terminus)) [compound 14]        8.0%
27  21 (SSSQSWQR; not fully specified (N-terminus)) [compound 21]        6.9%
28  26 (STSQQWQR; not fully specified (N-terminus)) [compound 26]        0.0%
29  36 (QPWQRSQPWQR; not fully specified (N-terminus)) [compound 36]       70.3%
30  7 (APSQPWQR; not fully specified (N-terminus)) [compound 7]        4.2%
